# tgt: Estrogen receptor (Homo sapiens, UniProt Q92731+P03372)
# protocol_details: Inhibition of estrogen dependent human uterus cancer RL-95-2 cell proliferation
# Assay type: functional
quantity: IC50 (µM)
Numeric only. Scale: µM

Please report the recorded IC50 for `CISPLATIN` .
10.3

---

# tgt: Estrogen receptor (Homo sapiens, UniProt Q92731+P03372)
# protocol_details: Inhibition of estrogen dependent human ovarian cancer OVCAR-3 cell proliferation
# Format: functional, cell-based
quantity: pIC50
Units for pIC50: none; it is -log10 of a concentration expressed in mol/L.

Please report the recorded pIC50 for `CISPLATIN` .
5.60

---

# tgt: Estrogen receptor (Homo sapiens, UniProt Q92731+P03372)
# protocol_details: Inhibition of estrogen dependent human ovarian cancer SKOV-3 cell proliferation
# Format: functional, cell-based
# condition_summary: sk-ov-3
quantity: IC50 (µM)
Numeric only. Scale: µM

Please report the recorded IC50 for `CISPLATIN` .
5.8
